ASSAY METHOD TEXT: Half life in mouse liver microsomes
Format: ADME, Microsome
METRIC NAME: half-life

The reported half-life of the compound `[2H]C([2H])([2H])NC(=O)c1cnc(NC(=O)C2CC2)cc1Nc1cccc(-c2ncc(F)cn2)c1OC` was > 2 h

* * *

ASSAY METHOD TEXT: Half life in human liver microsomes
Assay type: ADME, Microsome
METRIC NAME: half-life

The reported half-life of the molecule `[2H]C([2H])([2H])NC(=O)c1cnc(NC(=O)C2CC2)cc1Nc1cccc(-c2ncc(F)cn2)c1OC` was > 2 h

* * *

ASSAY METHOD TEXT: AUC (0 to 24 hrs) in mouse at 10 mg/kg, po
Format: ADME, organism-based
Set-up: time < 24 hr, route oral, dose 10 mg/kg
TEST SETTINGS: in vivo
So I've got a bunch of molecules here, and I need their AUC(0-t) at 24 h values.
Numbers only, in µM·h.

>  <STRUCTURE SMILES>
[2H]C([2H])([2H])NC(=O)c1nnc(NC(=O)C2CC2)cc1Nc1cccc(-c2cnc(C(=O)N(C)C)cn2)c1OC

>  <AUC(0-t) at 24 h [µM·h]>
19

$$$$
>  <STRUCTURE SMILES>
[2H]C([2H])([2H])NC(=O)c1cnc(NC(=O)C2CC2)cc1Nc1cccc(-c2ncc(F)cn2)c1OC

>  <AUC(0-t) at 24 h [µM·h]>
65

$$$$
>  <STRUCTURE SMILES>
[2H]C([2H])([2H])NC(=O)c1nnc(NC(=O)C2CC2)cc1Nc1cccc(-c2ncccn2)c1OC

>  <AUC(0-t) at 24 h [µM·h]>
15

$$$$

Please examine the following record next.
The reported AUC(0-t) at 24 h of the molecule `[2H]C([2H])([2H])NC(=O)c1nnc(NC(=O)C2CC2)cc1Nc1cccc(-c2cnc(C(C)(C)O)cn2)c1OC` was 26
